// data source = patent US6548096B1

Known Sweetening potency (relative to sugar) of a selection of compounds
# assay-overview: Sensory evaluation of sweetening potency relative to sugar
# Type: in vivo
# assay-context: times that of sugar; sensory evaluation
metric-name: Sweetening potency (relative to sugar)

- CCOc1ccc(CCCN[C@@H](CC(=O)O)C(=O)N[C@@H](Cc2ccccc2)C(=O)OC)cc1 [Compound 6]: 1,500 times
- COC(=O)[C@H](Cc1ccccc1)NC(=O)[C@H](CC(=O)O)NCCCc1ccc(OC)c(C)c1 [Compound 18]: 8,000 times
- COC(=O)[C@H](Cc1ccccc1)NC(=O)[C@H](CC(=O)O)NCCCc1cccc(OC)c1 [Compound 8]: 3,500 times
- COC(=O)[C@H](Cc1ccccc1)NC(=O)[C@H](CC(=O)O)NCCCc1cc(OC)cc(OC)c1 [Compound 19]: 800 times
- COC(=O)[C@H](Cc1ccccc1)NC(=O)[C@H](CC(=O)O)NCCCc1cc(OC)ccc1O [Compound 12]: 1,500 times
- COC(=O)[C@H](Cc1ccccc1)NC(=O)[C@H](CC(=O)O)NCCCc1cccc(OC)c1O [Compound 11]: 10,000 times
- COC(=O)[C@H](Cc1ccccc1)NC(=O)[C@H](CC(=O)O)NCCCc1ccc2c(c1)OCO2 [Compound 3]: 5,000 times
- COC(=O)[C@H](Cc1ccccc1)NC(=O)[C@H](CC(=O)O)NCCCc1ccc(OC)cc1 [Compound 5]: 6,500 times
- COC(=O)[C@H](Cc1ccccc1)NC(=O)[C@H](CC(=O)O)NCCCc1ccc(OCCO)cc1 [Compound 20]: 1,000 times
- COC(=O)[C@H](Cc1ccccc1)NC(=O)[C@H](CC(=O)O)NCCCc1ccc(O)cc1 [Compound 4]: 5,000 times
- COC(=O)[C@H](Cc1ccccc1)NC(=O)[C@H](CC(=O)O)NCCCc1ccc(OC)cc1OC [Compound 14]: 4,000 times
- COC(=O)[C@H](Cc1ccccc1)NC(=O)[C@H](CC(=O)O)NCCCc1ccc(C)cc1 [Compound 21]: 4,000 times
- CCOc1cc(OC)ccc1CCCN[C@@H](CC(=O)O)C(=O)N[C@@H](Cc1ccccc1)C(=O)OC [Compound 15]: 2,500 times
- COC(=O)[C@H](Cc1ccccc1)NC(=O)[C@H](CC(=O)O)NCCCc1ccc(OC)c(OC)c1 [Compound 2]: 2,500 times
